# target_system: JAK3 (Homo sapiens (Human), UniProt P52333)
# Sequence (P52333 whole entry, species assumed): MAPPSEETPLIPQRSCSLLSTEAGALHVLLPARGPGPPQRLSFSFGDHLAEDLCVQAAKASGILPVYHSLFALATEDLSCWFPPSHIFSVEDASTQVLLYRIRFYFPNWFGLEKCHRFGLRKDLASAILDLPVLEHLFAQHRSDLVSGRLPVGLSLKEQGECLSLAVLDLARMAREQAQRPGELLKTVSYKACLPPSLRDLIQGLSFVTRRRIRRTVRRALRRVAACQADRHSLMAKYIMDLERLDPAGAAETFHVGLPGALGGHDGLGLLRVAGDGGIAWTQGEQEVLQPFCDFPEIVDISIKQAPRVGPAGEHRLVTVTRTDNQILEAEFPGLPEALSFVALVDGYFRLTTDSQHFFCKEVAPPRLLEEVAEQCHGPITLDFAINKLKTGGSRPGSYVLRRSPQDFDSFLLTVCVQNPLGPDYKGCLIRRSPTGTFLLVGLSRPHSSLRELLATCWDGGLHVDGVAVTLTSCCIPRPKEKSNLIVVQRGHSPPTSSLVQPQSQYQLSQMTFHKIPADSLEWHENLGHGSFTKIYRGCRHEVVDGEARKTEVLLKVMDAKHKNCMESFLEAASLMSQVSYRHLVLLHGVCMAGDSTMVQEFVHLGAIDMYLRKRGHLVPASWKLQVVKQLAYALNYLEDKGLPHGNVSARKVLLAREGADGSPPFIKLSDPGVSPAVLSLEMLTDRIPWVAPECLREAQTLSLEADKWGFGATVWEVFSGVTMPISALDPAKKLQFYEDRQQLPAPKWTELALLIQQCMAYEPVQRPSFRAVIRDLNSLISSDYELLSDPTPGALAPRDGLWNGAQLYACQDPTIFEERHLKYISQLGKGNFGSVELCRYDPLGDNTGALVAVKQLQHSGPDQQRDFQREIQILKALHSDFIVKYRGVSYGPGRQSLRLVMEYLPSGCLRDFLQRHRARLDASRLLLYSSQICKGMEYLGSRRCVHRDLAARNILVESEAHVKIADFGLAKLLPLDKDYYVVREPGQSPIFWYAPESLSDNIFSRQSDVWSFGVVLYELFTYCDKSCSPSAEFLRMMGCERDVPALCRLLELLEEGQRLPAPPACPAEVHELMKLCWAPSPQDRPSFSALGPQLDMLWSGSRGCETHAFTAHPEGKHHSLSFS
# method: IC50 against JAK3
# Type: biochemical
Below is a list of entries, each paired with its recorded IC50 value.

| molecule_smiles | test_result |
| --- | --- |
| C=CC(=O)N1CCN(C(=O)c2cc(Sc3cnc(NC(=O)C4CC4)s3)c(C)cc2C(F)(F)F)CC1 | 1000 to 10000 nM |
| C=CC(=O)N1CCN(C(=O)c2cc(Sc3cnc(NC(=O)C4CC4)s3)ccc2OC)CC1 | 100 to 1000 nM |
| C=CC(=O)N1CCCN(C(=O)c2cc(Sc3cnc(NC(=O)C4CC4)s3)c(C)cc2OC)CC1 | 100 to 1000 nM |
| C=CC(=O)N1CCCN(C(=O)c2cc(Sc3cnc(NC(=O)c4ccc(F)c(CN(C)C)c4)s3)c(C)cc2OC)CC1 | 1000 to 10000 nM |

Query: Recall and state the measured IC50 for `C=CC(=O)N1CCCN(C(=O)c2cc(Sc3cnc(NC(=O)c4cccc(CN[C@H](C)C(C)(C)C)c4)s3)c(C)cc2OC)CC1` .
Result: 1000 to 10000 nM

Query: Recall and state the measured IC50 for `C=CC(=O)N1CCN(C(=O)c2cc(Sc3cnc(NC(=O)C4CC4)s3)c(C)cc2C)C[C@H]1C` .
Result: 100 to 1000 nM

Query: Recall and state the measured IC50 for `C=CC(=O)N1CCN(C(=O)c2cc(Sc3cnc(NC(=O)C4CC4)s3)c(C)cc2OC)CC1(C)C` .
Result: 100 to 1000 nM

----------
# target_system: TXK (Homo sapiens (Human), UniProt P42681)
# Sequence (P42681 whole entry, species assumed): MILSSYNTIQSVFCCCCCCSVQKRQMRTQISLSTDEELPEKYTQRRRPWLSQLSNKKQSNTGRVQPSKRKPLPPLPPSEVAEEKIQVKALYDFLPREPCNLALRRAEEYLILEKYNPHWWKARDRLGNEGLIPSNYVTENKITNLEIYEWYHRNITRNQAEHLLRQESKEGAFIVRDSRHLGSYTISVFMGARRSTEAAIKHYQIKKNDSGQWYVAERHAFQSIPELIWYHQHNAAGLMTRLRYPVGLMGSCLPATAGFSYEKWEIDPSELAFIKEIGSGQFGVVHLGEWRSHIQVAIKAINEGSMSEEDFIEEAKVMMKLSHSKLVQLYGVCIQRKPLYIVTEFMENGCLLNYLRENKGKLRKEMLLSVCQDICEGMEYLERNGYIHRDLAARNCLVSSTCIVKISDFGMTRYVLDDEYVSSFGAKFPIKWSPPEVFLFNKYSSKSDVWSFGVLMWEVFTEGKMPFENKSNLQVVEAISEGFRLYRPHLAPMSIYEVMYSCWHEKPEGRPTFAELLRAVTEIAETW
# method: IC50 against TXK
# Type: biochemical
Below is a list of entries, each paired with its recorded IC50 value.

Examples with answers:
| molecule_smiles | measured_metric | test_result |
| --- | --- | --- |
| C=CC(=O)N1CCCN(C(=O)c2cc(Sc3cnc(Nc4ccccn4)s3)c(C)cc2OC)C[C@H]1C | IC50 | 10 to 100 nM |
| C=CC(=O)N1CCN(C(=O)c2cc(Sc3cnc(NC(=O)C4CC4)s3)ccc2OC)C[C@H]1C | IC50 | 100 to 1000 nM |

Query: Recall and state the measured IC50 for `C=CC(=O)N1CCN(C(=O)c2cc(Sc3cnc(NC(C)=O)s3)c(C)cc2OC)C[C@@H]1C` .
Result: 100 to 1000 nM

Query: Recall and state the measured IC50 for `C=CC(=O)N1CCN(C(=O)c2cc(Sc3cnc(NC(=O)c4ccncc4)s3)c(C)cc2OC)CC1` .
Result: 100 to 1000 nM

----------
# target_system: UniProt:Q06187
# Sequence (Q06187 whole entry, species assumed): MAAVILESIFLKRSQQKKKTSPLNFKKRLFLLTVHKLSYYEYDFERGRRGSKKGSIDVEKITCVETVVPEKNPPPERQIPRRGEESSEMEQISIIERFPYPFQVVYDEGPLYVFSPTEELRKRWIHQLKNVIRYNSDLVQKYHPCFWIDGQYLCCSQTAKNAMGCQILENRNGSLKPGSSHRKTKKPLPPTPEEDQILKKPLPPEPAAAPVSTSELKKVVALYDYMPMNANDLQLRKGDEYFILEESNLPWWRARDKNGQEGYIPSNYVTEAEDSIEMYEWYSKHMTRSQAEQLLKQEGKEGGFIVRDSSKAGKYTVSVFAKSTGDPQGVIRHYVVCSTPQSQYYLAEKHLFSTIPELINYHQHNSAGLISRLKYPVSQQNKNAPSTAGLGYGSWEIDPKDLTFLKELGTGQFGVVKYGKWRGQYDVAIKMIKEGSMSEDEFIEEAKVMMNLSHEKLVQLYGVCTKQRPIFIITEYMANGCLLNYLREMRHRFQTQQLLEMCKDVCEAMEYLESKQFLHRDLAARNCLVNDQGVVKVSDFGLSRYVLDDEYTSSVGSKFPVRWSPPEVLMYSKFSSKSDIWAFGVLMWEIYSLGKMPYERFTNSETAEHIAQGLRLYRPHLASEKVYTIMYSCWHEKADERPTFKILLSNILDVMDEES
# method: IC50 against BTK
# Type: biochemical
measured_metric: IC50

Examples with answers:
| molecule | IC50 |
| --- | --- |
| C=CC(=O)N1CC[C@@H](N(C)C(=O)c2cc(Sc3cnc(NC(=O)c4ccsc4)s3)c(C)cc2OC)C1 [Compound 146] | < 10 nM |
| C=CC(=O)N1CCN(C(=O)c2cc(Sc3cnc(NC(=O)C4CC4)s3)c(C)cc2Cl)C[C@H]1CC [Compound 99] | 1000 to 10000 nM |
| C=CC(=O)N1CCN(C(=O)c2cc(Sc3cnc(NC(C)=O)s3)c(C)cc2OC)CC1(C)C [Compound 6] | 1000 to 10000 nM |
| C=CC(=O)N1CCN(C(=O)c2cc(Sc3cnc(NC(=O)c4cccc(CN(C)C)c4)s3)c(C)cc2OC)C[C@H]1C#N [Compound 124] | < 10 nM |
| C=CC(=O)N1CCCN(C(=O)c2cc(Sc3cnc(Nc4ccccn4)s3)c(C)cc2OC)C[C@H]1C [Compound 103] | 100 to 1000 nM |

Query: Recall and state the measured IC50 for C=CC(=O)N1CC[C@H](N(C)C(=O)c2cc(Sc3cnc(NC(C)=O)s3)c(C)cc2OC)C1 [Compound 30] .
Result: 100 to 1000 nM

Query: Recall and state the measured IC50 for C=CC(=O)N1CCN(C(=O)c2cc(Sc3cnc(NC(=O)c4ccsc4)s3)c(C)cc2OC)C[C@H]1C#N [Compound 156] .
Result: < 10 nM

Query: Recall and state the measured IC50 for C=CC(=O)N1CCN(C(=O)c2cc(Sc3cnc(NC(=O)C4CC4)s3)c(C)cc2OC)C(C)(C)C1 [Compound 15] .
Result: < 10 nM

Query: Recall and state the measured IC50 for C=CC(=O)N1[C@@H]2CC[C@H]1CN(C(=O)c1cc(Sc3cnc(NC(C)=O)s3)c(C)cc1OC)C2 [Compound 8] .
Result: 10 to 100 nM

Query: Recall and state the measured IC50 for C=CC(=O)N1CCN(C(=O)c2cc(Sc3cnc(NC(=O)c4ccsc4)s3)c(C)cc2OC)CC1 [Compound 90] .
Result: 10 to 100 nM

Query: Recall and state the measured IC50 for C=CC(=O)N1CCCN(C(=O)c2cc(Sc3cnc(NC(=O)C4CC4)s3)c(C)cc2C(F)(F)F)C[C@H]1C [Compound 70] .
Result: ≥ 10000 nM

Query: Recall and state the measured IC50 for C=CC(=O)N1CCN(C(=O)c2cc(Sc3cnc(NC(=O)c4cnn(C)c4)s3)c(C)cc2C)CC1 [Compound 108] .
Result: 100 to 1000 nM

Query: Recall and state the measured IC50 for C=CC(=O)N1C[C@@H]2C[C@H]1CN2C(=O)c1cc(Sc2cnc(NC(C)=O)s2)c(C)cc1OC [Compound 24] .
Result: 10 to 100 nM

Query: Recall and state the measured IC50 for C=CC(=O)N1C[C@H]2CC[C@@H](C1)N2C(=O)c1cc(Sc2cnc(NC(=O)c3ccsc3)s2)c(C)cc1OC [Compound 143] .
Result: < 10 nM

Query: Recall and state the measured IC50 for C=CC(=O)N1CCCN(C(=O)c2cc(Sc3cnc(NC(=O)C4CC4)s3)c(C)cc2C)C[C@H]1CC [Compound 112] .
Result: 100 to 1000 nM
